Give IC50 for every item shown.
Test system: UniProt P00734
Experiment summary: anti-thrombin activity; clotting assay (coagulation time with fibrinogen as substrate)
Assay type: biochemical
Set-up: 100 μl of human-thrombin prepared at 10 NIH units/ml in aforesaid buffer
Condition notes: concentration corresponding to 50 thrombin units; human-thrombin 10 NIH units/ml, human-fibrinogen 6 mg/ml; read-out: 50% Inhibition Concentration (converted)
*1 amine or outer side, *2 acyl side, *3 side chain or, on linkers, in order; H or OH if unused. Where a SMILES comes first, the peptide text is derived from it. [ ]: non-standard residue; d: D form. The star is where a group is joined. sY = N[C@@H](Cc1ccc(OS(=O)(=O)O)cc1)C(=O)O; Asu = N[C@@H](CCCCCC(=O)O)C(=O)O; Suc = O=C(CCC(=O)[*:2])[*:1]; X1 = NS(=O)(=O)CCN*; βAla = NCCC(=O)O
Could you give me the number in µM? Just the number is fine.

Challenge: Test system UniProt P00734; read-out IC50; what value for CC[C@H](C)[C@H](NC(=O)[C@H](CCC(=O)O)NC(=O)[C@H](CCC(=O)O)NC(=O)[C@H](Cc1ccccc1)NC(=O)[C@H](CC(=O)O)NC(=O)CN)C(=O)N1CCC[C@H]1C(=O)N[C@@H](Cc1ccc(O)cc1)C(=O)N[C@@H](Cc1ccc(OS(=O)(=O)O)cc1)C(=O)N[C@@H](Cc1ccc(O)cc1)C(=O)N[C@@H](CC(C)C)C(=O)N[C@@H](CCC(N)=O)C(=O)O (single isomer, unassigned) [Sulfated form of (B) peak 2] ?
Response given: 0.63

Challenge: Return IC50 measured with UniProt P00734 given this compound: CC[C@H](C)[C@H](NC(=O)[C@@H]1CCCN1C(=O)[C@H](CCC(=O)O)NC(=O)[C@H](Cc1ccccc1)NC(=O)CCC(=O)O)C(=O)N1CCC[C@H]1C(=O)N[C@@H](CCC(=O)O)C(=O)N[C@@H](Cc1ccc(O)cc1)C(=O)N[C@@H](Cc1ccc(O)cc1)C(=O)N[C@@H](CCCCCC(=O)OC)C(=O)OC [(O)] (Suc-FEPIPEYY[Asu](OMe)-OMe)
Response given: 26

Challenge: Form entry - test system: UniProt P00734; read-out: IC50; compound: CC[C@H](C)[C@H](NC(=O)[C@H](CCC(=O)O)NC(=O)[C@H](CCC(=O)O)NC(=O)[C@H](Cc1ccccc1)NC(=O)[C@H](CC(=O)O)NC(=O)CN)C(=O)N1CCC[C@H]1C(=O)N[C@@H](Cc1ccc(O)cc1)C(=O)N[C@@H](Cc1ccc(O)cc1)C(=O)N[C@@H](Cc1ccc(OS(=O)(=O)O)cc1)C(=O)N[C@@H](CC(C)C)C(=O)N[C@@H](CCC(N)=O)C(=O)O (single isomer, unassigned) [Sulfated form of (B) peak 3]
Response given: 2.49

Challenge: Identify the measured IC50 of CC[C@H](C)[C@H](NC(=O)[C@@H]1CCCN1C(=O)[C@H](CCC(=O)O)NC(=O)[C@H](Cc1ccccc1)NC(=O)CCC(=O)O)C(=O)N1CCC[C@H]1C(=O)N[C@@H](CCC(=O)O)C(=O)N[C@@H](Cc1ccc(OS(=O)(=O)O)cc1)C(=O)N[C@@H](Cc1ccc(OS(=O)(=O)O)cc1)C(=O)NCCC(=O)O [Sulfated form of (K)] (Suc-FEPIPE[sY][sY][βAla]-OH) for UniProt P00734.
Response given: 4.65

Challenge: Notebook: pull reported IC50 for UniProt P00734, entry CC[C@H](C)[C@H](NC(=O)[C@@H]1CCCN1C(=O)[C@H](CCC(=O)O)NC(=O)[C@H](Cc1ccccc1)NC(=O)[C@H](CC(=O)O)NC(=O)CNC(=O)CCC(=O)O)C(=O)N1CCC[C@H]1C(=O)N[C@@H](CCC(=O)O)C(=O)N[C@@H](Cc1ccc(OS(=O)(=O)O)cc1)C(=O)N[C@@H](Cc1ccc(OS(=O)(=O)O)cc1)C(=O)N[C@@H](CC(C)C)C(=O)N[C@@H](CCC(N)=O)C(=O)O [Sulfated form of (C)] (Suc-GDFEPIPE[sY][sY]LQ-OH)
Response given: 0.0429

Challenge: # query: IC50 | item CC[C@H](C)[C@H](NC(=O)[C@H](CCC(=O)O)NC(=O)[C@H](CCC(=O)O)NC(=O)[C@H](Cc1ccccc1)NC(=O)[C@H](CC(=O)O)NC(=O)CN)C(=O)N1CCC[C@H]1C(=O)N[C@@H](Cc1ccc(O)cc1)C(=O)N[C@@H](Cc1ccc(OS(=O)(=O)O)cc1)C(=O)N[C@@H](Cc1ccc(OS(=O)(=O)O)cc1)C(=O)N[C@@H](CC(C)C)C(=O)N[C@@H](CCC(N)=O)C(=O)O (single isomer, unassigned) [Sulfated form of (B) peak 1] | system: UniProt P00734
Response given: 0.291

Challenge: Query for UniProt P00734: what IC50 does the record show for CC[C@H](C)[C@H](NC(=O)[C@@H]1CCCN1C(=O)[C@H](CCC(=O)O)NC(=O)[C@H](Cc1ccccc1)NC(=O)CCC(=O)O)C(=O)N1CCC[C@H]1C(=O)N[C@@H](CCC(=O)O)C(=O)N[C@@H](Cc1ccc(O)cc1)C(=O)N[C@@H](Cc1ccc(O)cc1)C(N)=O [(J)] (Suc-FEPIPEYY-NH2) ?
Response given: 85.1

Challenge: Lab note: need IC50 with UniProt P00734 for entry CC[C@H](C)[C@H](NC(=O)[C@@H]1CCCN1C(=O)[C@H](CCC(=O)O)NC(=O)[C@H](Cc1ccccc1)NC(=O)[C@H](CC(=O)O)NC(=O)CNC(=O)CCC(=O)O)C(=O)N1CCC[C@H]1C(=O)N[C@@H](Cc1ccc(OS(=O)(=O)O)cc1)C(=O)N[C@@H](Cc1ccc(OS(=O)(=O)O)cc1)C(=O)N[C@@H](Cc1ccc(OS(=O)(=O)O)cc1)C(=O)N[C@@H](CC(C)C)C(=O)N[C@@H](CCC(N)=O)C(=O)O [Sulfated form of (E)] (Suc-GDFEPIP[sY][sY][sY]LQ-OH) , please look it up.
Response given: 0.0807

Challenge: Form: Entry = CC[C@H](C)[C@H](NC(=O)[C@@H]1CCCN1C(=O)[C@H](CCC(=O)O)NC(=O)[C@H](Cc1ccccc1)NC(=O)CCC(=O)O)C(=O)N1CCC[C@H]1C(=O)N[C@@H](CCC(=O)O)C(=O)N[C@@H](Cc1ccc(O)cc1)C(=O)N[C@@H](Cc1ccc(O)cc1)C(=O)N[C@@H](CC(C)C)C(=O)NCCS(N)(=O)=O [(S)] (Suc-FEPIPEYYL-X1) | System = UniProt P00734 | IC50 = ____
Response given: 72.4

###

Test system: thrombin (Homo sapiens)
Experiment summary: anti-thrombin activity; clotting assay (coagulation time with fibrinogen as substrate)
Format: biochemical
Parameters: 100 μl of human-thrombin prepared at 10 NIH units/ml in aforesaid buffer
Condition notes: concentration corresponding to 50 thrombin units; human-thrombin 10 NIH units/ml, human-fibrinogen 6 mg/ml; read-out: 50% Inhibition Concentration (converted)
*1 amine or outer side, *2 acyl side, *3 side chain or, on linkers, in order; H or OH if unused. Where a SMILES comes first, the peptide text is derived from it. [ ]: non-standard residue; d: D form. The star is where a group is joined. sY = N[C@@H](Cc1ccc(OS(=O)(=O)O)cc1)C(=O)O; Asu = N[C@@H](CCCCCC(=O)O)C(=O)O; NH(3-hydroxypropyl) = OCCCN*; Suc = O=C(CCC(=O)[*:2])[*:1]; Leu(ol) = CC(C)C[C@H](N)CO; Ava = NCCCCC(=O)O
hey, just use label 1 if measured IC50 is less than 20 µM, otherwise label 0

Challenge: Criterion: IC50 strictly below 20 µM. Is it met by CC[C@H](C)[C@H](NC(=O)[C@@H]1CCCN1C(=O)[C@H](CCC(=O)O)NC(=O)[C@H](Cc1ccccc1)NC(=O)CCC(=O)O)C(=O)N1CCC[C@H]1C(=O)N[C@@H](CCC(=O)O)C(=O)N[C@@H](Cc1ccc(OS(=O)(=O)O)cc1)C(=O)N[C@@H](Cc1ccc(OS(=O)(=O)O)cc1)C(=O)NCCCCC(=O)O [Sulfated form of (L)] (Suc-FEPIPE[sY][sY][Ava]-OH) ?
Response given: label 1

Challenge: Quick check: IC50 of CC[C@H](C)[C@H](NC(=O)[C@@H]1CCCN1C(=O)[C@H](CCC(=O)O)NC(=O)[C@H](Cc1ccccc1)NC(=O)CCC(=O)O)C(=O)N1CCC[C@H]1C(=O)N[C@@H](CCC(=O)O)C(=O)N[C@@H](Cc1ccc(O)cc1)C(=O)N[C@@H](Cc1ccc(O)cc1)C(=O)N[C@H](CO)CC(C)C [(P)] (Suc-FEPIPEYY[Leu(ol)]) under 20 µM?
Response given: label 0

Challenge: Record CC[C@H](C)[C@H](NC(=O)[C@@H]1CCCN1C(=O)[C@H](CCC(=O)O)NC(=O)[C@H](Cc1ccccc1)NC(=O)CCC(=O)O)C(=O)N1CCC[C@H]1C(=O)N[C@@H](CCC(=O)O)C(=O)N[C@@H](Cc1ccc(OS(=O)(=O)O)cc1)C(=O)N[C@@H](Cc1ccc(OS(=O)(=O)O)cc1)C(=O)N[C@@H](CC(C)C)C(=O)N[C@H](CCC(=O)O)C(=O)O [Sulfated form of (T)] (Suc-FEPIPE[sY][sY]L[dE]-OH) : is its IC50 strictly below 20 µM?
Response given: label 1

Challenge: Hi there! Is IC50 for CC[C@H](C)[C@H](NC(=O)[C@@H]1CCCN1C(=O)[C@H](CCC(=O)O)NC(=O)[C@H](Cc1ccccc1)NC(=O)CCC(=O)O)C(=O)N1CCC[C@H]1C(=O)N[C@@H](CCC(=O)O)C(=O)N[C@@H](Cc1ccc(O)cc1)C(=O)N[C@@H](Cc1ccc(O)cc1)C(=O)N[C@@H](CC(C)C)C(=O)N[C@@H](CCCCCC(=O)OC)C(=O)OC [(V)] (Suc-FEPIPEYYL[Asu](OMe)-OMe) below 20 µM, do you know?
Response given: label 0

Challenge: Please state whether IC50 is below 20 µM for CC[C@H](C)[C@H](NC(=O)[C@@H]1CCCN1C(=O)[C@H](CCC(=O)O)NC(=O)[C@H](Cc1ccccc1)NC(=O)CCC(=O)O)C(=O)N1CCC[C@H]1C(=O)N[C@@H](CCC(=O)O)C(=O)N[C@@H](Cc1ccc(OS(=O)(=O)O)cc1)C(=O)N[C@@H](Cc1ccc(OS(=O)(=O)O)cc1)C(=O)O [Sulfated form of (I)] (Suc-FEPIPE[sY][sY]-OH)
Response given: label 1

Challenge: Is it true that IC50 reported for CC[C@H](C)[C@H](NC(=O)[C@@H]1CCCN1C(=O)[C@H](CCC(=O)O)NC(=O)[C@H](Cc1ccccc1)NC(=O)CCC(=O)O)C(=O)N1CCC[C@H]1C(=O)N[C@@H](CCC(=O)O)C(=O)N[C@@H](Cc1ccc(O)cc1)C(=O)N[C@@H](Cc1ccc(O)cc1)C(=O)NCCCO [(N)] (Suc-FEPIPEYY-{NH(3-hydroxypropyl)}) is less than 20 µM?
Response given: label 0
